Just for reference, paper PMC5540273 is where these values come from.

System: TYK2(JH1domain-catalytic)
Details: concentration: 1 μM, replicates: in singlicate; n = 1;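 further: KINOMEscan kinase panel screen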
MEASURED_QUANTITY: %Inh (%)
One number for each entry, in %.

Check out these entries, answers already filled in.
Cc1cc(-c2ccnc(Nc3cccc(C#N)c3)n2)cc(C)c1O; 60
Cn1cc(-c2cnc(N)c3c(-c4ccc5c(c4)CCN5C(=O)Cc4ccccc4)csc23)cn1; 0
CN1CCN(Cc2ccc(NC(=O)Nc3ccc(N(C)c4ccnc(Nc5ccc(CS(C)(=O)=O)cc5)n4)cc3)cc2)CC1.Cl; 97.9
CN(c1ccc(NC(=O)Nc2cccc(Cl)c2)cc1)c1ccnc(N)n1.Cl; 0
COc1cc(Nc2ccnc3cc(-c4ccncc4)ccc23)cc(OC)c1OC.Cl; 17
COc1cc(Nc2nccc(N3CCC(NS(=O)(=O)c4ccc(NC(C)=O)cc4)CC3)n2)cc(OC)c1OC; 75

Dear colleague, could you send me %Inh for each of the items below? Thanks.
1. O=C(Nc1n[nH]c2nc(-c3cccc(O)c3)ccc12)C1CC1
2. COc1ccc(C2=C(Nc3cccc(O)c3)C(=O)NC2=O)cc1
3. O=C(O)C(F)(F)F.O=c1[nH]ccc2nc(N[C@@H]3CCNC3)nc(Nc3cc(Cl)cc(Cl)c3)c12
4. Cl.Cl.NC(CNC(=O)c1cc(Br)c(-c2ccnc3[nH]ccc23)s1)c1ccccc1 (centres unmarked)
5. Cc1cc(-c2c(-c3ccc(F)cc3)ncn2CCCN2CCOCC2)nc(N)n1
6. N#Cc1cnc2cc(-c3cnc(CNCCN4CCOCC4)s3)ccc2c1Nc1ccc(Oc2ccccc2)cc1
7. NCCC(NC(=O)c1cc(Br)c(-c2ccnc3[nH]ccc23)s1)c1ccccc1.O=C(O)C(F)(F)F.O=C(O)C(F)(F)F (centres unmarked)
8. Cc1ccc(C)c(NC(=O)Nc2ccc(C)c(-c3ccc(C(=O)Nc4ccncc4)cc3)c2)c1

18
25
80
71
0
0
83
0

I would be grateful if you could provide %Inh for each of the following entries.
1. COC(=O)Nc1nc2ccc(Oc3ccc(CC(=O)Nc4cc(C(F)(F)F)ccc4F)cc3)cc2[nH]1
2. Cc1ccc(Nc2ccnc(Nc3ccc(C)c(F)c3)n2)cc1O.Cl
3. CCn1cnc2c(NCc3ccccc3)ncnc21

1. 23
2. 31
3. 0

----------
Tested on: MLK3
Details: concentration: 1 μM, replicates: in singlicate; n = 1
What %Inh was measured for each of the following?
Numbers only, in %.

# count of solved cases: 3
O=C(Nc1n[nH]c2nc(-c3ccccc3)ccc12)C1CC1 [SB-708999]; 5
CN(c1ccc(NC(=O)Nc2cccc(Cl)c2)cc1)c1ccnc(N)n1.Cl [GW830707]; 0
Nc1ncc(-c2cn[nH]c2)c2scc(-c3ccc4c(c3)CCN4C(=O)Cc3ccccc3)c12 [GSK2593067]; 32

Report %Inh for every entry below.
1. COc1ccc(C)c(Nc2ccnc(Nc3ccc(-c4cnc[nH]4)cc3)n2)c1.Cl [GW784041]
2. Cl.Cl.NC(CNC(=O)c1cc(Br)c(-c2ccnc3[nH]ccc23)s1)c1ccccc1 (centres unmarked) [GSK1322949]

1. 0
2. 0

----------
Test system: RPS6KA4(Kin.Dom.2-C-terminal)
Details: concentration: 1 μM, replicates: in singlicate; n = 1
Could you please report measured %Inh for the items listed next?
Numbers only, in %.

O=C(O)C(F)(F)F.O=c1[nH]ccc2nc(N[C@@H]3CCNC3)nc(Nc3ccc4c(c3)S(=O)(=O)CC4)c12; 100

Please look at the items below and tell me %Inh for each one, in order.
1. Cc1ccc(NC(=O)c2cccc(N3CCCCC3)c2)cc1-c1ccc(C(=O)NCC2CC2)cc1
2. CCOc1nccc(-c2c(-c3ccc(F)cc3)ncn2C2CCNCC2)n1
3. c1ccc(Oc2ccc(Nc3ccnc4cc(-c5ccc(CN6CCCCC6)o5)ccc34)cc2)nc1
4. CC(C)c1nc(-c2ccc(F)c(NS(=O)(=O)c3c(F)cccc3F)c2)c(-c2ccnc(Nc3ccc(N4CCOCC4)nc3)n2)s1

1: 0; 2: 32; 3: 0; 4: 0

----------
Tested on: NDR1
Construct: gene STK38
Details: concentration: 1 μM, replicates: in singlicate; n = 1
MEASURED_QUANTITY: %Inh (%)
Give bare numbers, in %.

Worked set:
CNc1nccc(-c2ccc3c(N)n[nH]c3c2)n1 [GSK2206003]; 24
Cc1cccc(Nc2nc(NCCN)ncc2C(N)=O)c1 [GSK1292139]; 21
CCn1c(-c2nonc2N)nc2c(-c3ccccc3)ncc(OCCCN)c21.O=C(O)C(F)(F)F.O=C(O)C(F)(F)F [GSK260205]; 23

Would you mind giving %Inh for every compound in the list below?
1. COc1cc(Nc2ccnc3cc(-c4ccncc4)ccc23)cc(OC)c1OC.Cl [GW494610]
2. O=C(Nc1n[nH]c2nc(-c3ccccc3O)ccc12)C1CC1 [SB-711880]
3. Nc1ncc(-c2ccc3nccc(-c4ccncc4)c3c2)cc1S(=O)(=O)N1CCCCC1 [GSK1693850]
4. COc1ccc(NC(=O)c2ccoc2)cc1-c1ccc(C(=O)NCC2CC2)cc1 [GW810437]

1: 17; 2: 6; 3: 30; 4: 32

Could you report %Inh for every entry in the following list?
1. Nc1cccc(-c2ccc3c(N)n[nH]c3c2)c1 [GSK2193613]
2. CCNc1nccc(-c2c(-c3ccc(F)cc3)ncn2C2CCN(C)CC2)n1
3. N#CC1(c2cccc(C(=O)Nc3cccc(Oc4ccc5nc(NC(=O)C6CC6)sc5n4)c3)c2)CC1
4. CN(c1ccc(F)c(NC(=O)c2cccc(OC(C)(C)C#N)c2Cl)c1)c1ccc2nc(NC(=O)C3CC3)sc2n1
5. CN1CCN(Cc2ccc(NC(=O)Nc3ccc(N(C)c4ccnc(Nc5ccc(CS(C)(=O)=O)cc5)n4)cc3)cc2)CC1.Cl [GW827654]
6. CN(c1ccc2c(c1)nc(NCc1ccccc1)n2C)c1ccnc(Nc2ccc(CS(C)(=O)=O)cc2)n1.Cl [GW811603]
7. CC(C)c1nc(-c2ccc(F)c(NS(=O)(=O)c3c(F)cccc3F)c2)c(-c2ccnc(Nc3ccc(N4CCOCC4)nc3)n2)s1 [GSK1804250]
8. COC(=O)Nc1nc2cc(Oc3ccc(NC(=O)Nc4cccc(SC)c4)cc3)ccc2[nH]1.Cl [GW697999]

1: 27; 2: 3; 3: 18; 4: 0; 5: 0; 6: 8; 7: 23; 8: 11

----------
Answer each item with its documented %Inh.
Test system: HPK1
Conditions: concentration: 1 μM, replicates: in singlicate; n = 1
Give bare numbers, in %.

Nc1ncc(-c2ccc3nccc(-c4ccncc4)c3c2)cc1S(=O)(=O)N1CCCCC1 [GSK1693850]; 50
Cl.O=C(Nc1ccc(Oc2ccc3[nH]c(NC(=O)c4ccco4)nc3c2)cc1)Nc1cc(C(F)(F)F)ccc1F [GW683134]; 40
Cc1ccc(NC(=O)c2ccnc(N3CCCCC3)c2)cc1-c1ccc(C(=O)NCC2CC2)cc1 [GW775610]; 24
Nc1ncnc2scc(-c3ccc(NC(=O)Cc4cc(F)ccc4F)cc3)c12.O=C(O)C(F)(F)F [SB-731254-M]; 44
O=C(Nc1n[nH]c2cc(-c3cccs3)ccc12)C1CC1 [SB-731284]; 0

Please give %Inh, item by item, for the list that follows.
1. Cc1ccc(O)cc1Nc1ccnc2cc(-c3ccc(CN4CCCCC4)o3)ccc12 [GW557777]
2. Cn1cc(-c2ccc3c(c2)CCN3C(=O)Cc2cc(F)cc(C(F)(F)F)c2)c2c(N)ncnc21 [GSK2635225]

[37, 31]

Below is a list of compounds. For each, state its recorded %Inh.
1. Cc1cccc(Nc2nc(NCCN)ncc2C(N)=O)c1 [GSK1292139]
2. Cc1ccc(-c2ccc3occ(-c4ccc(S(C)=O)cc4)c3c2)nn1 (stereo not drawn)
3. CN(c1ccc(NC(=O)Nc2cccc(Cl)c2)cc1)c1ccnc(N)n1.Cl [GW830707]
4. Cc1ccc(C)c(NC(=O)Nc2ccc(C)c(-c3ccc(C(=O)Nc4ccncc4)cc3)c2)c1 [GSK1398473]
5. COC(=O)Nc1nc2cc(Oc3ccc(NC(=O)Nc4cccc(SC)c4)cc3)ccc2[nH]1.Cl [GW697999]
6. Cc1cc(-c2c(-c3ccc(F)cc3)ncn2CCCN2CCOCC2)nc(N)n1 [SB-222517]
7. COc1cccc(-c2nc(-c3ccccc3)[nH]c2-c2ccncc2)c1 [SB-610250]
8. Cc1nn2c(=O)cc(N3CCO[C@H](C)C3)nc2n1Cc1cccc(Cl)c1Cl [GSK2373693]

[85, 0, 0, 36, 30, 12, 43, 25]

----------
System: FYN
Settings: concentration: 1 μM, replicates: in singlicate; n = 1
Give %Inh for every item shown.
Form field: result (number plus unit)

Previously resolved entries follow.
Cc1ccc(-c2ccc3occ(-c4ccc(S(C)=O)cc4)c3c2)nn1 (centres unmarked); 0%
COc1cc(Nc2nccc(N3CCC(NC(=O)Nc4ccc5c(c4)OCO5)C3)n2)cc(OC)c1OC (centres unmarked); 36%
Nc1ncc(-c2cn[nH]c2)c2scc(-c3ccc4c(c3)CCN4C(=O)Cc3ccccc3)c12; 65%
CN(C)CCOc1ccc(-c2cc(-c3ccc(Cl)c(O)c3)c(-c3ccncc3)[nH]2)cc1.Cl.Cl; 78%

Quick one: give me %Inh for each item below, same order please.
1. O=C(O)C(F)(F)F.O=c1[nH]ccc2nc(N[C@@H]3CCNC3)nc(Nc3cc(Cl)cc(Cl)c3)c12
2. Cc1cccc(Nc2nc(NCCN)ncc2C(N)=O)c1
3. CN(c1ccc(F)c(NC(=O)c2cccc(OC(C)(C)C#N)c2Cl)c1)c1ccc2nc(NC(=O)C3CC3)sc2n1
4. O=C1NC(=O)C(c2ccccc2Cl)=C1Nc1cccc(Cl)c1

1. 52%
2. 48%
3. 79%
4. 22%
